# ASSAYED SYSTEM: recombinant human TFPI (tissue factor pathway inhibitor) (human, UniProt P10646 29-304)
# METHOD: cell-based or functional assay
Each entry below carries its recorded FXa assay OD, 2.5 nM Ab, 10 nM TFPI.

BINDER: clone 1023 (antibody, V domains shown, scFv on yeast at selection; human IgG4/kappa IgG as purified) VH: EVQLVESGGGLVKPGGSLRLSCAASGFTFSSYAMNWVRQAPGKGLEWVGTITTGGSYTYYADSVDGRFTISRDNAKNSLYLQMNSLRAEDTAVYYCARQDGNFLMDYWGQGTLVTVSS VL: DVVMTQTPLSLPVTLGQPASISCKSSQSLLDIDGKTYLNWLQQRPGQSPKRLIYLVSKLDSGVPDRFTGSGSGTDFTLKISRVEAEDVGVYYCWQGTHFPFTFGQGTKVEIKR
FXa assay OD, 2.5 nM Ab, 10 nM TFPI: 0.042
//
BINDER: clone 1123 (antibody, V domains shown) VH: EVQLVESGGGLVKPGGSLRLSCAASGFTFSSYAMNWVRQAPGKGLEWVSTITTGGSHTYYADSVEGRFTISRDNAKNSLYLQMNSLRAEDTAVYYCARQDGHFLMDYWGQGTLVTVSS VL: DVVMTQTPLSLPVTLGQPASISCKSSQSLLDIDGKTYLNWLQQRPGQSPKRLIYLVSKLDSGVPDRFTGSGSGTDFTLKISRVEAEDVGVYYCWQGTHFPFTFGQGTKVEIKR
FXa assay OD, 2.5 nM Ab, 10 nM TFPI: 0.0315
//
BINDER: clone 1024 (antibody, V domains shown) VH: EVQLVESGGGLVKPGGSLRLSCAASGFTFSSYAMSWVRQAPGKGLEWVSTITTGGSYTYYADSVDGRFTISRDNAKNSLYLQMNSLRAEDTAVYYCARQDGNFLMDYWGQGTLVTVSS VL: DVVMTQTPLSLPVTLGQPASISCKSSQSLLDLDGKTYLNWLQQRPGQSPKRLIYLVSKLDSGVPDRFTGSGSGTDFTLKISRVEAEDVGVYYCWQGTHFPFTFGQGTKVEIKR
FXa assay OD, 2.5 nM Ab, 10 nM TFPI: 0.0225
//
BINDER: clone 1104 (antibody, V domains shown) VH: EVQLVESGGGLVKPGGSLRLSCAASGFTFSSYAMNWVRQAPGKGLEWVGTITTGGSHTYYADSVQGRFTISRDNAKNSLYLQMNSLRAEDTAVYYCARQDGNFLMDYWGQGTLVTVSS VL: DVVMTQTPLSLPVTLGQPASISCKSSQSLLDVDGKTYLNWLQQRPGQSPKRLIYLVSKLDSGVPDRFTGSGSGTDFTLKISRVEAEDVGVYYCWQGTHFPFTFGQGTKVEIKR
FXa assay OD, 2.5 nM Ab, 10 nM TFPI: 0.041
